# Measurement description: yeast display, Sf9 membrane polyspecificity reagent, FACS + sequencing; frameworks hold sequencing errors
Result type: polyreactivity (PSR sort gate)

>  <Residue string>
QVQLVESGGGLVQAGGSLRLSCDASGSIFAWYAMGWYRQAPGKERELVATITWSGGSTYYADSVKGRFTISRDNANNTVYLQMNSLKQEDTAVYYCAADRVWPYYQYDYWGQGTQVSVSS

>  <Result type>
polyreactivity (PSR sort gate)

>  <Observed measurement>
low polyreactivity

$$$$
>  <Residue string>
QVQLVESGGGLVQAGGSLRLSCAACGFTFRYNAMGWYRQAPGKERELVAAITRGGGNTYYADSVKGRFTISRDHAKNTVYLQMNSLKPEDTAVYYCAAYSNGGRYDYGYWGQGTQVTVSS

>  <Result type>
polyreactivity (PSR sort gate)

>  <Observed measurement>
high polyreactivity

$$$$
>  <Residue string>
QVHLVESGGGLVQAGGSLRLSCAASGSILDEYAMGWYRQPPGKESELVAAISSSGTSTYYADSVKRRFTISRDNAKNTDYLQMNSLKPEDTAVYDCARVKQHRSHRVPGDDYWGQGTQVTVSS

>  <Result type>
polyreactivity (PSR sort gate)

>  <Observed measurement>
low polyreactivity

$$$$
>  <Residue string>
QVQLHESGGGLVQAGGSLRLSCAASGTISYAGPMGWYRQAPGKEREFVAGIGVGSNTNYADRVKGRYTIIRDNAKNTEYLQRNSLKPEDTALYYCAVGGYAPLGRPYWGQGTQVTVSS

>  <Result type>
polyreactivity (PSR sort gate)

>  <Observed measurement>
low polyreactivity

$$$$
>  <Residue string>
QVQLVESGGGLVQAGGSLRLSGAASGFIFDQNAMGGYRQPPGKVRELVAAISKRGGSTYYADSVKGRFTISRDNAMNTVYLQMNSLKPEDTAVYYCARPRRSVNFYKYIYNYWGQGTLVTVSS

>  <Result type>
polyreactivity (PSR sort gate)

>  <Observed measurement>
high polyreactivity

$$$$
>  <Residue string>
QVQLVESGGGLVQAGGSLRLSCAASGSTFRYYAMGWYRQAPGKERELVAAITQSGGITYYADSVKGRFTISRDNAKNTVYLQMNSLKPEDTAVYYCAKRYYVDYDYWGQGTQVTVSS

>  <Result type>
polyreactivity (PSR sort gate)

>  <Observed measurement>
low polyreactivity

$$$$
>  <Residue string>
QVQLVESGGGLFQAGGSLRLICAASGRIFDVNAMGWYRQAPGKERELVAAISWSGGITYYADSVKGRFTISRDNAKNTVYLQINSLKPEDTAVYYCAADKYQGYTFYQGYPGGGGYWGQGTQVTVSS

>  <Result type>
polyreactivity (PSR sort gate)

>  <Observed measurement>
low polyreactivity

$$$$
>  <Residue string>
QVQLVESGGGLVQAGGSLRLSCAASGRIFAPYAKGRYRQAPGKERELVAAIRWRGGSTSYADSVKGRFTISRDNAKNTVYLQLNSLKPEDSAVYSCNADYGFSFYWYDYWGHGTQVTVSS

>  <Result type>
polyreactivity (PSR sort gate)

>  <Observed measurement>
low polyreactivity

$$$$
>  <Residue string>
QVQLVESGGGLVQAGGSLRLSCAASGFTFGGYAMGCYRQAPGKESELVAAISGRGGRTYYADSVKGRFTISRDNAKNTVYLQMNSLKPEDTAVYYCAAPTNHWTRLSGDYWGQGTQVTVSS

>  <Result type>
polyreactivity (PSR sort gate)

>  <Observed measurement>
high polyreactivity

$$$$
>  <Residue string>
QVQLVESGGGLVQAGGSLRLSCAASGRILDAYTMGWYRQAPGKERQLVAAISASGVSTYYADSVKGRFTISRDNAKNTVYLQMNSLKPEDTAVYYCAKDYYQQTGFLEYDYWGHGTQVTVSS

>  <Result type>
polyreactivity (PSR sort gate)

>  <Observed measurement>
low polyreactivity

$$$$

QUERY: Requested field: polyreactivity (PSR sort gate). Item: QVQLVESGGGLVQAGGSLRLSCAASGSIFGYNAMGWYRQAPGKERELVAAINYNGGRTYYADSVKGRFTISRDNAKNTVYLQMNSLKPEDTAVYYCATQGRSLYYRYDYWGQGTQVTVSS
RESULT: high polyreactivity

QUERY: Requested field: polyreactivity (PSR sort gate). Item: QVQLVESGGGLVQAGGSLRLSCAASGRIFRRYAMGWYRQAPGKERELVAAISTRGGSTYYADSVKGRFTISRDNAKNTVYLPMNSLKPEDTAVYYCAAGRDPGYNNDDYWGQGTQVTVSS
RESULT: high polyreactivity

QUERY: Requested field: polyreactivity (PSR sort gate). Item: QVQLVESGGGLVQAGGSLRLSCAASGSTFEGNAMVWYRPAPGKERELVAAISSGGRTYYADSVKGRFTISRDNAKNTVYLQMNSLKPEDTAVYYCAAYVRRGFDWGQGTQVTVSS
RESULT: high polyreactivity

###

# Measurement description: yeast display, Sf9 membrane polyspecificity reagent, FACS + sequencing; frameworks hold sequencing errors
Result type: polyreactivity (PSR sort gate)

>  <Residue string>
QVQLVESGGGLVQAGGSLRLSCAASGLIFYGNAMGWYRQAPVKERELVAAISRRGGRTYYADSVKGRFTISRDNAKNTVYLQMNSLKPEDTAVYYCAAGVPKNGQAGYDYWGQGTQVTVSS

>  <polyreactivity (PSR sort gate)>
high polyreactivity

$$$$
>  <Residue string>
QVQLVESGGGLVQAGGSLRLSCAASGSIFSYYAMGWYRQAPGKERELVAAISQSGGTTYYADSVKGRFTISRDNAKNTVYLQMNSLKPEDTAVYYCAARAPSSFDTQYYYWGQGTQVTVSS

>  <polyreactivity (PSR sort gate)>
low polyreactivity

$$$$
>  <Residue string>
QVQLVESGGGLVQAGGSLRLSCAASGSTFNDYAMGWYRQAPGNERELVAGITWRGTSTYYADSVKGRFTISRDNAKNTVYLQMNSLKPEDTAVYYCNADHVYGGYQYDFDYWGQGTQVTVSS

>  <polyreactivity (PSR sort gate)>
low polyreactivity

$$$$
>  <Residue string>
QGQLVESGGGLVQAGGSLRFSCADSGRIFHRYVMGWYRQAPGKERELVAAISWSSGSTSADSVKGRFTISRDNAKNTDYLQMNSLKPEDTAVYYCNASYNGVPARYDYWGQGTQVTVSS

>  <polyreactivity (PSR sort gate)>
low polyreactivity

$$$$
>  <Residue string>
QVQLVESGGGLVQAGGSLRLSCAASGSTFPQNVMGWYRQAPGKERELVAAITRSAGSTYYADSVKGRFTISRDNAKNTVYLQMNSLKPEDTAVYYCNTGRQRGDGWGQGTQVTVSS

>  <polyreactivity (PSR sort gate)>
high polyreactivity

$$$$

Please examine the following record next.
QUERY: Requested field: polyreactivity (PSR sort gate). Item: QVQLVESGGGLVQAGGSLRLSCAASGYTFTVYPMGGYRPAPGKERELVAAIRDGSSTNYADSVKGRFTISRDNAKNTVYLQMISLKPEDTAVYYCNAYSQSWNFYGDGDYWGQGTQVTVSS
RESULT: low polyreactivity

###

# Measurement description: yeast display, Sf9 membrane polyspecificity reagent, FACS + sequencing; frameworks hold sequencing errors
Result type: polyreactivity (PSR sort gate)

>  <Residue string>
QVQLVESGGGLVQAGGRLRLSCAASGRIGPNVMGWYRQPPGKERELVAAISRRGGSTYYADSVKGRFTISRDNAKNTVYLQMNSLKPEDTAVYYCAKDLYTLAVKGGDYWGQGTQVTVSS

>  <polyreactivity (PSR sort gate)>
high polyreactivity

$$$$
>  <Residue string>
QVQLVESGGGLVQAGGSLRLSCAASGNTFYINTMGWYRQAPGKEREFVAAITWSGGPTYYADSVKGRFTISRDNAKNTVYLQMNSLKPEDTAVYYCAADSRGEDYYYWGQGTQVTVSS

>  <polyreactivity (PSR sort gate)>
high polyreactivity

$$$$
>  <Residue string>
QVQLVESGGGLVQAGGSLRLSCAASGSTLYAYAMGWYRQAPGKERELVAAISSRAVRTYYADSVKGRFTISRDNAKNTVYLQMNSMKPEDTAVYYCAAQRSYAYEYWGQGTQVTVSS

>  <polyreactivity (PSR sort gate)>
high polyreactivity

$$$$
>  <Residue string>
QVQLVESGGGLVQAGGSLRLSCAASGFTFVGNAMGSYRQAPGKERELVAAITWSGGRTYYADSVKGRFTISRDNAKNTVYLQMNSLKPEDTAVYYCNKLVERWYGYWGQGTQVTVSS

>  <polyreactivity (PSR sort gate)>
high polyreactivity

$$$$
>  <Residue string>
QVQLVESWGGLVQAGGSLRLSCAASGSTFRGNAMGWYRQAPGTERELVAAITRRGGSTYYADSVKGRFTISRDNAKNTVYLQMNSLKPEDPAVYYCAKVGRETEYDYWGQGTQVTVSS

>  <polyreactivity (PSR sort gate)>
high polyreactivity

$$$$
>  <Residue string>
QVQLVESGGGLVQAGGSLRLSCAASGRIFGQNTMGWYRQAPGKERELVAAITWNGGRTYYADSVKGRFTISRDNAKNTVYLQMNSLKPEDTAVYYCAARYSTYPWYNYWGQGTQVTVSS

>  <polyreactivity (PSR sort gate)>
high polyreactivity

$$$$

QUERY: Requested field: polyreactivity (PSR sort gate). Item: QVQLVESGGGLVQAGGSLRLSCAASGFTFIGYAMGWSRPAPGKERELVAAITWRGGRTYYADSVKGRFSISRDNAKNTVYLQMNSLKTEETAVYYCAADGYTVGNSYYWGHGTQVTVSS
RESULT: high polyreactivity

QUERY: Requested field: polyreactivity (PSR sort gate). Item: QVQLVESGGGLVQAGGSLRLSCAASGRIFAKNAMGWYRQAPGKERELVAAINHSGGSTYYADSVKGRFTISRDNAKNTVYLQMNSLKPEDTAVYYCAARGLTTRSPFYYWGQGTQVTVSS
RESULT: high polyreactivity

QUERY: Requested field: polyreactivity (PSR sort gate). Item: QVQLVESGGGLVQAGGSLRLSCAASGSTLEYYAMGWYRQAPGKERELVAAITYSGGDTYYADSVKGRFTISRDNAKNTVYLQMNSLKPEDTAVYYCAAEALYYPYETYDYWGQGTQVTVSS
RESULT: high polyreactivity

QUERY: Requested field: polyreactivity (PSR sort gate). Item: QVQLVESGGGLVQAGGSLRLSCAASGSTFYYYAMGWYRPAPGKERELVAAISSRGGSTFYADSVKGRFTISRDNAKNTVYLQMNSLKPEDTAVYYCNAYRYDRSQYYPYDYWGQGTQVTVSS
RESULT: high polyreactivity

QUERY: Requested field: polyreactivity (PSR sort gate). Item: QDQLEESGGGLVQAGGSLRLSCAASGRMFNSYAMGWYRQAPGKERELVAAISFSGGSTYYADSVKGRFTISRDNAKNTVYLQMNSLKPEDTAVYYCNAVTAVDTAHDYWGQGTQVTVSS
RESULT: high polyreactivity

QUERY: Requested field: polyreactivity (PSR sort gate). Item: QVQLVDSGGGLDQAGGSLRLSCAASGSIFVSEYDMVWYIQAPGKERELVARSRWSSGSTYYADSVKGRFSISRDYAKNTVYVQMNSLKPEDTAVYYCNTVRTRERTDYDYWGQGTQVTVSS
RESULT: low polyreactivity

QUERY: Requested field: polyreactivity (PSR sort gate). Item: QVQLVESGGGLVQAGGSLRLSCADSGSTITYYTMGWYRQAPGKERDLVAAISGSGGRTYYADSVKGRFTISRDNAKNTVYLQMNSLKPEDTAVYYCAAGYQLSRYDYWGQGTQVTVSS
RESULT: high polyreactivity

QUERY: Requested field: polyreactivity (PSR sort gate). Item: QVQLVESGGGLVQAGGSLRLSCAAYGRIFPLNAMGWNRQAPGKERELVAAISYDGGTYYAYSVKGRFTISRDNAKNTFYLQMNSLKPEDTAVYYCANSRATWVGKHDYWGQGTQVTVSS
RESULT: low polyreactivity

QUERY: Requested field: polyreactivity (PSR sort gate). Item: QVQLVESGGGLVQAGGSLRLSCDASGSIFDRYVMGWYRQAPGKERELVAAITTSGDGTYYADSVKGRFTISRDNAKNSVYLQMNSLKREDTAVYYCAAVRRSWKYSTSDYWGQGTQVTVSS
RESULT: low polyreactivity
